Tested on: CYPIR (Rice Flatsedge)
testDetails: Preemergence weed control under flooded paddy conditions
Assay type: in vivo, Cyperus iria
testSettings: 0.1250 kg/ha, rated 3-4 weeks after treatment
metric: Herbicidal rating CYPIR

>>> quantitativereadout("Cn1c(C(F)(F)F)cc(=O)n(-c2cc(N=C3NC(=O)CS3)c(Cl)cc2F)c1=O [Compound 39]")
0.0
>>> quantitativereadout("CCOC(=O)CN1C(=O)C(CC(=O)O)S/C1=N/c1cc(-n2c(=O)cc(C(F)(F)F)n(C)c2=O)c(F)cc1Cl (stereo not drawn) [Compound 16]")
4.0
>>> quantitativereadout("CCOC(=O)CN1C(=O)CS(=O)(=O)C1=Nc1cc(-n2c(=O)cc(C(F)(F)F)n(C)c2=O)c(F)cc1Cl [Compound 46]")
0.0

Origin of measurements: patent US20020137929A1
